The values you see were collected from paper PMC11830721.

Target: UniProt Q9UM73
Sequence (Q9UM73 19-1620): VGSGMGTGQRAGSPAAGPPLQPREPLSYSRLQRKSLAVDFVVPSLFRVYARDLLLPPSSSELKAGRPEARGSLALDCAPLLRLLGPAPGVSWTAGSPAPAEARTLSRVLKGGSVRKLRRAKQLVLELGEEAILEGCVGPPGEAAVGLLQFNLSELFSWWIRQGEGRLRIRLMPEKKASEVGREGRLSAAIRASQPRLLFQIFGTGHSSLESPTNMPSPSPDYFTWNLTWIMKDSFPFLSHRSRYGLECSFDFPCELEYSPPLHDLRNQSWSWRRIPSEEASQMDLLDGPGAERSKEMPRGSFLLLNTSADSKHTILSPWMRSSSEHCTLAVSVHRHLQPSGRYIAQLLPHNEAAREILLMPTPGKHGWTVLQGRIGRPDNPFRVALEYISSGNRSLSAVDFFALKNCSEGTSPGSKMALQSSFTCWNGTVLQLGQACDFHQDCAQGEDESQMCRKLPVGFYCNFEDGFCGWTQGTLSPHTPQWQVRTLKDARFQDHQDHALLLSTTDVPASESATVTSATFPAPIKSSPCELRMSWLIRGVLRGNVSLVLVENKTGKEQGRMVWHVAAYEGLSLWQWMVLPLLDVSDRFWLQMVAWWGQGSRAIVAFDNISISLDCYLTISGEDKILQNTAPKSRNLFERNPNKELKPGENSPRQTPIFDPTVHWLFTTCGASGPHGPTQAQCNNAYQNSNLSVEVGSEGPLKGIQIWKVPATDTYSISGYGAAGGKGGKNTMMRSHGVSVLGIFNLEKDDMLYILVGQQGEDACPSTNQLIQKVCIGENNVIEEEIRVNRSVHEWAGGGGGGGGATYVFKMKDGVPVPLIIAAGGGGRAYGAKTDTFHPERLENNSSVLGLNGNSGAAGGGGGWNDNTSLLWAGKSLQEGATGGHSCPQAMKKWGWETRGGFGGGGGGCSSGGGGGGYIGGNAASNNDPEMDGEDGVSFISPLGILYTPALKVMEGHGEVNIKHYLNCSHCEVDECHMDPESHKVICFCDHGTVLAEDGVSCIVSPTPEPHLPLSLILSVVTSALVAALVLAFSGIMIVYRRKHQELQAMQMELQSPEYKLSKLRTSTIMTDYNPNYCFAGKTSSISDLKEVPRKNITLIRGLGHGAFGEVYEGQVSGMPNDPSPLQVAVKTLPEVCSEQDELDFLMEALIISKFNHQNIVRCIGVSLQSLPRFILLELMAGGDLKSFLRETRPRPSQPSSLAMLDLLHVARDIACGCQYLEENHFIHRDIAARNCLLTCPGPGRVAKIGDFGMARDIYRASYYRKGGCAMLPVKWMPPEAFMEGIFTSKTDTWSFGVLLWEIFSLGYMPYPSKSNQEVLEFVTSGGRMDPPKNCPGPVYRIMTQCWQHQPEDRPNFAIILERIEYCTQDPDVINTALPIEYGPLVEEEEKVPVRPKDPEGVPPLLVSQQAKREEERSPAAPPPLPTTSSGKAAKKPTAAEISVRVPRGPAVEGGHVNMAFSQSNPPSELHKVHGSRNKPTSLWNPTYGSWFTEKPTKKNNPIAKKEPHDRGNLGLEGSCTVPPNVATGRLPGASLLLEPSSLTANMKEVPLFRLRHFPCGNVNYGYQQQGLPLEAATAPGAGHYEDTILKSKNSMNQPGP
Assay: SelectScreen kinase selectivity assay
Format: biochemical
Conditions: ten-dose 0.25–128 μM
endpoint: IC50

Task: Record request: IC50 value, item CCc1nc(C(N)=O)c(Nc2ccc(N3CCC(Nc4ccccc4)CC3)c(OC)c2)nc1NC1CCOC(C(O)CO)C1 (stereo not shown) [FLIN-4]
Result: > 10 µM

----------
Target: DDR2 (Homo sapiens, UniProt Q16832)
Sequence (Q16832 22-855): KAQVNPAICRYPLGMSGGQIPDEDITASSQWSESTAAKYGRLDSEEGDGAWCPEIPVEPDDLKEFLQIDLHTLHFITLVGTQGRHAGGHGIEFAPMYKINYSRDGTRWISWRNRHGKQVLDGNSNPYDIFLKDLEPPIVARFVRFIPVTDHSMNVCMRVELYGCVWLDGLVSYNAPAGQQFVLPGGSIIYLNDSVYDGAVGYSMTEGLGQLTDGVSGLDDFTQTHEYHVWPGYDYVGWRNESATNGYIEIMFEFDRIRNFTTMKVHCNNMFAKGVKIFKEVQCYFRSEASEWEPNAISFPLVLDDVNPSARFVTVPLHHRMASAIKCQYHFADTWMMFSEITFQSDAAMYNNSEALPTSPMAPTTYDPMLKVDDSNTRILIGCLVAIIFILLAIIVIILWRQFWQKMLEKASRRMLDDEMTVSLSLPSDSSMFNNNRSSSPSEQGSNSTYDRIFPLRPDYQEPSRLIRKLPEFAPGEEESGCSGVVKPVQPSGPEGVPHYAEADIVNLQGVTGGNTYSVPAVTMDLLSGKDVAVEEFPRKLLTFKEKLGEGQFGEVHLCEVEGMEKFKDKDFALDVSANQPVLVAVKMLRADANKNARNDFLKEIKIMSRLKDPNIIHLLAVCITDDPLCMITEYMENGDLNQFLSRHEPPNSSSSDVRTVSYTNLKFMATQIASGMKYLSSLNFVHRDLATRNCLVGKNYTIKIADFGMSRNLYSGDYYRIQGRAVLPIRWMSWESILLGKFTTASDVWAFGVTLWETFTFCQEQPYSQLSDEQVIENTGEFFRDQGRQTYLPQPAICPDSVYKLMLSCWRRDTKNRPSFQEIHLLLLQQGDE
pIC50: −log10 of the molar value.
endpoint: pIC50

Task: Given CCc1nc(C(N)=O)c(Nc2ccc(N3CCC(Nc4ccccc4)CC3)c(OC)c2)nc1NC1CCOC(C(O)CO)C1 (stereo not shown) [FLIN-4] , state its recorded pIC50.
Result: < 5.00

----------
Molecular target: UniProtKB P11309
pIC50: −log10 of the molar value.
endpoint: pIC50

Task: I would be grateful if you could share the reported pIC50 for CCc1nc(C(N)=O)c(Nc2ccc(N3CCC(Nc4ccccc4)CC3)c(OC)c2)nc1NC1CCOC(C(O)CO)C1 (stereo not shown) [FLIN-4] .
Result: < 5.00

----------
Biological target: MUSK (Homo sapiens, UniProt O15146)
pIC50: −log10 of the molar value.
endpoint: pIC50

Task: Record CCc1nc(C(N)=O)c(Nc2ccc(N3CCC(Nc4ccccc4)CC3)c(OC)c2)nc1NC1CCOC(C(O)CO)C1 (stereo not shown) [FLIN-4] : what is its pIC50 with MUSK (Homo sapiens, UniProt O15146)?
Result: < 5.00

----------
Molecular target: EPHA3 (Homo sapiens)
Sequence (P29320 21-983): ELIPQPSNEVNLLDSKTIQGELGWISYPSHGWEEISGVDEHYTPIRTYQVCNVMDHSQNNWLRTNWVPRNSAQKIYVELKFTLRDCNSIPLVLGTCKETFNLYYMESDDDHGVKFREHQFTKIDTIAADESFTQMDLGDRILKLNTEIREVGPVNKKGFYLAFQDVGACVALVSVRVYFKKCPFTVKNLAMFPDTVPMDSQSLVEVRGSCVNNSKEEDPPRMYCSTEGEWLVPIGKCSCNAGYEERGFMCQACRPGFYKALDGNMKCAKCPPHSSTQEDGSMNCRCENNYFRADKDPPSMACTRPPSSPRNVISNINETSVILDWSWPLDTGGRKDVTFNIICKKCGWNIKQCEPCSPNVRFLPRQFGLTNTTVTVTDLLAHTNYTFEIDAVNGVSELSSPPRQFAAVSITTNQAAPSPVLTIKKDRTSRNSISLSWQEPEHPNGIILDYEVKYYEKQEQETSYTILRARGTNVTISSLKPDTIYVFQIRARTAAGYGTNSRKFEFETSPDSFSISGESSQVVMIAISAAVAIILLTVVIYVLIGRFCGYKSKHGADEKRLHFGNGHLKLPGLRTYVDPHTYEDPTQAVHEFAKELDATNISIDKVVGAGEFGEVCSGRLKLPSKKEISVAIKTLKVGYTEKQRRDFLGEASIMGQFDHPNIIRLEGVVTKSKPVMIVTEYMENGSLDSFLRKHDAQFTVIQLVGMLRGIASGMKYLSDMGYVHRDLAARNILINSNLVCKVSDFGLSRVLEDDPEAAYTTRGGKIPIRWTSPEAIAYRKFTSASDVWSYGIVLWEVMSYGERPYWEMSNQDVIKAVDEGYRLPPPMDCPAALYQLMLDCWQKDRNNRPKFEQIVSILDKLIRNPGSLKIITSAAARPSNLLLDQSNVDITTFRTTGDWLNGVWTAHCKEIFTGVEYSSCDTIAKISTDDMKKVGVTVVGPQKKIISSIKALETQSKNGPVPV
endpoint: IC50

Task: Recall the recorded IC50 for CCc1nc(C(N)=O)c(Nc2ccc(N3CCC(Nc4ccccc4)CC3)c(OC)c2)nc1NC1CCOC(C(O)CO)C1 (stereo not shown) with EPHA3 (Homo sapiens) and state it.
Result: > 10 µM

----------
Target: FYN (Homo sapiens)
Sequence (P06241 whole entry): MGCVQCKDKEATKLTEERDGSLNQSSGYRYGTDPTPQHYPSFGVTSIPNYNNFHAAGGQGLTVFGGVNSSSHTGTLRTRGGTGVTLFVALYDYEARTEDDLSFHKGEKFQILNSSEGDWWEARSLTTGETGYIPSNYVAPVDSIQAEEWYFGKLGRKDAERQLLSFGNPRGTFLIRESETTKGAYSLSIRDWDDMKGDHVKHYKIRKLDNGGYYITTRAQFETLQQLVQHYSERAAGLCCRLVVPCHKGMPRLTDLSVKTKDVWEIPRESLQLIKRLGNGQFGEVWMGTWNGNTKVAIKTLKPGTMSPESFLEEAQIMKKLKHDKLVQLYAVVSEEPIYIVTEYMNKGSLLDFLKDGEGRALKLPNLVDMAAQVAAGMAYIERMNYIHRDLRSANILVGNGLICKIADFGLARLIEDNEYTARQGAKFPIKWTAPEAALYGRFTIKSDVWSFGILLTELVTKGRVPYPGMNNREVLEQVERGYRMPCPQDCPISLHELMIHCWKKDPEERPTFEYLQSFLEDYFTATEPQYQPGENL
endpoint: IC50

Task: If you can, please state the reported IC50 value of CCc1nc(C(N)=O)c(Nc2ccc(N3CCC(Nc4ccccc4)CC3)c(OC)c2)nc1NC1CCOC(C(O)CO)C1 (stereo not shown) .
Result: > 10 µM

----------
Target: ABL2 (Homo sapiens, UniProt P42684)
endpoint: IC50

Task: Look up IC50 for this molecule: CCc1nc(C(N)=O)c(Nc2ccc(N3CCC(Nc4ccccc4)CC3)c(OC)c2)nc1NC1CCOC(C(O)CO)C1 (stereo not shown) [FLIN-4]
Result: > 10 µM

----------
Molecular target: UniProtKB Q08881
endpoint: IC50

Task: Reported IC50 for UniProtKB Q08881, given CCc1nc(C(N)=O)c(Nc2ccc(N3CCC(Nc4ccccc4)CC3)c(OC)c2)nc1NC1CCOC(C(O)CO)C1 (stereo not shown) [FLIN-4] ?
Result: > 10 µM

----------
Target: PDGFRA (Homo sapiens)
Sequence (P16234 24-1089): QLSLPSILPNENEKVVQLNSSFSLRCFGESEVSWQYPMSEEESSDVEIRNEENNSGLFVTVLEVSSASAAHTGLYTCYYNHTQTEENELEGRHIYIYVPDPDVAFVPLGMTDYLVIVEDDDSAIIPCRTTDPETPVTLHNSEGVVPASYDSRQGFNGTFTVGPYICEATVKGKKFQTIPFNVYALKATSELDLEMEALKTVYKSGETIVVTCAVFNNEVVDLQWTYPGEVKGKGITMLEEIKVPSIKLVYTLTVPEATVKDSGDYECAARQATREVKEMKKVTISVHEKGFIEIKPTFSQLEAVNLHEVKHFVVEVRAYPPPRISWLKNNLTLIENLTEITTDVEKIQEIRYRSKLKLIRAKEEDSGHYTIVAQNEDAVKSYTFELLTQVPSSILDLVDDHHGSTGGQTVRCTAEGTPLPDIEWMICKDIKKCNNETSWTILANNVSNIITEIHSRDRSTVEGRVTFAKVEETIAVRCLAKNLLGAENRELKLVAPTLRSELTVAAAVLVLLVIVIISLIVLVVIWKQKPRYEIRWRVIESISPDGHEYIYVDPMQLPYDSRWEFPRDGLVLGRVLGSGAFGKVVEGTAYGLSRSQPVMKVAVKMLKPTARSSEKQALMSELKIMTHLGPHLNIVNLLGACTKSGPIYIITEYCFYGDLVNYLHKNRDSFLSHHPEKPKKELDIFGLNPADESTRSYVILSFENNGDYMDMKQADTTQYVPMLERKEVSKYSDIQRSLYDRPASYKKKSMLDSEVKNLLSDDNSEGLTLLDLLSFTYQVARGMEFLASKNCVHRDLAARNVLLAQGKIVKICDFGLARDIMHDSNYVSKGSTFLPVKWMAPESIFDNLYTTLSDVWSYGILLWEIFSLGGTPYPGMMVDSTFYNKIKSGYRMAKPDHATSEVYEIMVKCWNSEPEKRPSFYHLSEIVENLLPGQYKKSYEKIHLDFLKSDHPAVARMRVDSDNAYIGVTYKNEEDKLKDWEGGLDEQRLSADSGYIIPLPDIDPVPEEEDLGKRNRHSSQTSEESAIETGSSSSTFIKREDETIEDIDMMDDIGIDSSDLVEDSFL
pIC50: −log10 of the molar value.
endpoint: pIC50

Task: pIC50 for CCc1nc(C(N)=O)c(Nc2ccc(N3CCC(Nc4ccccc4)CC3)c(OC)c2)nc1NC1CCOC(C(O)CO)C1 (stereo not shown) ?
Result: < 5.00

----------
Target: EPHA6 (Homo sapiens, UniProt Q9UF33)
Sequence (Q9UF33 23-1036): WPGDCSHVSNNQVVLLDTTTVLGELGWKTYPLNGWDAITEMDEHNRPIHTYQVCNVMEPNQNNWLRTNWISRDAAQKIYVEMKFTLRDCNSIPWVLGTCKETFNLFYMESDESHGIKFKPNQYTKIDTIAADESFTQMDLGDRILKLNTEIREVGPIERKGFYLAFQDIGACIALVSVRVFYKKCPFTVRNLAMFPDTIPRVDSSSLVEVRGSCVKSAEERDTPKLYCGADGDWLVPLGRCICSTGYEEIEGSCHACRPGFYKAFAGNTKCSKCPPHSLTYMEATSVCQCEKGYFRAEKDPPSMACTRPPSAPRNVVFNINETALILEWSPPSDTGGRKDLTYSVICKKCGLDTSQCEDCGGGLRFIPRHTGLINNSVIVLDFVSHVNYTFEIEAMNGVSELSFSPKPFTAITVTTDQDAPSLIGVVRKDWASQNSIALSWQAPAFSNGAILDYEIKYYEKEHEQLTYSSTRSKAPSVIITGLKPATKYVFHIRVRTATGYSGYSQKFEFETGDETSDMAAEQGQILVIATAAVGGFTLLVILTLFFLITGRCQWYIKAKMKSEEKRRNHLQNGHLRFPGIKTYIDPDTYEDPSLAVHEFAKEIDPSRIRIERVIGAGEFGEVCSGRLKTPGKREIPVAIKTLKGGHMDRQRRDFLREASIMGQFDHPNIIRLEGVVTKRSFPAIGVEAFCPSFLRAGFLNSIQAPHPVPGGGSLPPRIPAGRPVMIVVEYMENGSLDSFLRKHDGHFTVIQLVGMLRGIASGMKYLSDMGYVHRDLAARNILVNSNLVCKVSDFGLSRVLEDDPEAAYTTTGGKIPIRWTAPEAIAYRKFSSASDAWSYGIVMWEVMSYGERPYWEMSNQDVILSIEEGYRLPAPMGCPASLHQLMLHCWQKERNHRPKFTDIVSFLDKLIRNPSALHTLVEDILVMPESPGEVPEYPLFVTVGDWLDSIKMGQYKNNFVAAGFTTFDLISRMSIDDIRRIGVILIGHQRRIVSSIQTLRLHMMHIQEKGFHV
pIC50: −log10 of the molar value.
endpoint: pIC50

Task: Can you look up the measured pIC50 of CCc1nc(C(N)=O)c(Nc2ccc(N3CCC(Nc4ccccc4)CC3)c(OC)c2)nc1NC1CCOC(C(O)CO)C1 (stereo not shown) for me?
Result: < 5.00
